Where do the numbers come from? From patent US10076576B2.

- PROCEDURE_TEXT: Stability in citrated human plasma
- RECORDED_CONDITIONS: 5 hours incubation at 37° C. in citrated human plasma (pH7), 50 μM
RECORDED_ENDPOINT: % metabolites released: Dox (%)

| COMPOUND | OPERATOR_SYMBOL | NUMERIC_RESULT |
| --- | --- | --- |
| COc1cccc2c1C(=O)c1c(O)c3c(c(O)c1C2=O)CC(O)(C(=O)CO)CC3OC1CC(NC(=O)C(Cc2ccccc2)NC(=O)C2CCCN2C(=O)C(CC(C)C)NC(=O)C(C)NC(=O)CP(=O)(O)O)C(O)C(C)O1 (stereo not shown) | = | 0 |
| COc1cccc2c1C(=O)c1c(O)c3c(c(O)c1C2=O)CC(O)(C(=O)CO)CC3OC1CC(NC(=O)C(Cc2ccccc2)NC(=O)C(C)NC(=O)C(CC(C)C)NC(=O)C(C)NC(=O)CP(=O)(O)O)C(O)C(C)O1 (stereo not shown) | = | 0 |
| COc1cccc2c1C(=O)c1c(O)c3c(c(O)c1C2=O)CC(O)(C(=O)CO)CC3OC1CC(NC(=O)C2CCCN2C(=O)CNC(=O)C(CC(C)C)NC(=O)C(C)NC(=O)CP(=O)(O)O)C(O)C(C)O1 (stereo not shown) | = | 2 |
| COc1cccc2c1C(=O)c1c(O)c3c(c(O)c1C2=O)CC(O)(C(=O)CO)CC3OC1CC(NC(=O)C(CC(C)C)NC(=O)C(C)NC(=O)C(CC(C)C)NC(=O)C(C)NC(=O)CP(=O)(O)O)C(O)C(C)O1 (stereo not shown) | < | 1 |

###

- PROCEDURE_TEXT: in vivo
- RECORDED_CONDITIONS: female, OF-1, mouse, iv, 86.2 umol/kg

| COMPOUND | AUC (µM·h) |
| --- | --- |
| COc1cccc2c1C(=O)c1c(O)c3c(c(O)c1C2=O)C[C@@](O)(C(=O)CO)C[C@@H]3O[C@H]1C[C@H](N)[C@H](O)[C@H](C)O1 [Doxorubicin, reference compound] | 63 |
| COc1cccc2c1C(=O)c1c(O)c3c(c(O)c1C2=O)CC(O)(C(=O)CO)CC3OC1CC(NC(=O)C2CCCN2C(=O)CNC(=O)C(CC(C)C)NC(=O)C(C)NC(=O)CP(=O)(O)O)C(O)C(C)O1 (centres unmarked) | 97 |

###

- Tested on: LS-174T tumor cell secreted peptidases
- PROCEDURE_TEXT: Reactivation assay in LS174T tumor cell conditioned medium
- Assay type: biochemical, human
- RECORDED_CONDITIONS: 5 h at 37° C., 50 μM compound
RECORDED_ENDPOINT: % Metabolites released after 5 h (LS174T CM20xcc)

| COMPOUND | RESULT |
| --- | --- |
| COc1cccc2c1C(=O)c1c(O)c3c(c(O)c1C2=O)CC(O)(C(=O)CO)CC3OC1CC(NC(=O)C(CC(C)C)NC(=O)C(C)NC(=O)C(CC(C)C)NC(=O)C(C)NC(=O)CP(=O)(O)O)C(O)C(C)O1 (stereo not shown) [PhAc-ALAL-Dox, PhAc-ALAL-doxorubicin] | 65 ± 19% |
| COc1cccc2c1C(=O)c1c(O)c3c(c(O)c1C2=O)CC(O)(C(=O)CO)CC3OC1CC(NC(=O)C2CCCN2C(=O)CNC(=O)C(CC(C)C)NC(=O)C(C)NC(=O)CP(=O)(O)O)C(O)C(C)O1 (stereo not shown) [PhAc-ALGP-Dox, PhAc-ALGP-doxorubicin] | 81 ± 31% |
| COc1cccc2c1C(=O)c1c(O)c3c(c(O)c1C2=O)CC(O)(C(=O)CO)CC3OC1CC(NC(=O)C(Cc2ccccc2)NC(=O)C(C)NC(=O)C(CC(C)C)NC(=O)C(C)NC(=O)CP(=O)(O)O)C(O)C(C)O1 (stereo not shown) [PhAc-ALAF-Dox, PhAc-ALAF-doxorubicin] | 32 ± 15% |
| COc1cccc2c1C(=O)c1c(O)c3c(c(O)c1C2=O)CC(O)(C(=O)CO)CC3OC1CC(NC(=O)C(Cc2ccccc2)NC(=O)C2CCCN2C(=O)C(CC(C)C)NC(=O)C(C)NC(=O)CP(=O)(O)O)C(O)C(C)O1 (stereo not shown) [PhAc-ALPF-Dox, PhAc-ALPF-doxorubicin] | 11 ± 6% |
